- System: HOP-92 NSCLC
- assay-procedure: NCI tumour cell line growth inhibition, 48 h; in the data active = GI50 below about 0.43 µM; inactive = the rest
In this exercise, the only acceptable responses are active, inactive

Worked examples follow.
{"mol-smiles": "CCOC(=O)c1ccc(N(C=O)CCC(=O)CCl)cc1", "category": "active"}
{"mol-smiles": "O=C(CCN1CCCC1)Nc1ccc2c(NCCc3ccccc3)c3ccccc3nc2c1", "category": "active"}
{"mol-smiles": "CNC(=O)c1cc(Oc2ccc3nc(N[C@@H]4CCCC[C@H]4O)sc3c2)ccn1", "category": "inactive"}
{"mol-smiles": "COc1cc(OC)c(F)c(COc2cnc(Nc3cnn(CCO)c3)nc2)c1F", "category": "inactive"}

[Q] Test call, this compound: "CN1CCN(c2ccc3nc(-c4[nH]ncc4Nc4ncnc5c4OCCCN5)[nH]c3c2)CC1"
[A] active

[Q] "OCCn1cc(-c2cnc3nnn(Cc4ccc5ncccc5c4)c3n2)cn1" ?
[A] inactive

---

- Test system: T-47D breast
- assay-procedure: NCI tumour cell line growth inhibition, 48 h
Each item that follows carries a reported TGI.

Illustrative cases are given below, each with its answer.
{"compound": "C[N+]1([O-])[C@H]2CC(OC(=O)[C@H](CO)c3ccccc3)C[C@H]1[C@H]1O[C@H]12 (some centres not stated)", "TGI": "> 100 µM"}
{"compound": "CC(C)C[CH2][Ge]([CH2]CC(C)C)([CH2]CC(C)C)[CH2]CC(C)C", "TGI": "> 100 µM"}

Shifting focus to the compound that follows.
[Q] Which TGI value belongs to "O=C(c1ccccc1)c1c(C(F)(F)F)n([O-])c2cc(F)c(F)cc2[n+]1=O" ?
[A] > 36.7 µM

---

- System: A498 renal
- assay-procedure: NCI tumour cell line growth inhibition, 48 h
Reported TGI values for the following compounds.

[Q] For COc1ccc(N2C(=O)C3c4[nH]c5ccccc5c4C4c5ccccc5CC4C3C2=O)cc1 (stereo not drawn) , what is its reported TGI?
[A] > 100 µM

[Q] Then "CCOC(=O)Cn1c(-c2nonc2NC(=O)c2ccccc2F)nc2ccccc21" ?
[A] > 100 µM

[Q] Same read-out for "O=C1C=C(O)c2c(O)ccc(O)c2C1=O" ?
[A] > 100 µM

---

- Test system: CCRF-CEM leukemia
- assay-procedure: NCI tumour cell line growth inhibition, 48 h
quantity-kind: TGI

Worked cases, answers included:
{"compound": "COc1cc(S(=O)(=O)Nc2ccc(-c3csc(N4C(=O)C(C)SC4c4ccccc4)n3)cc2)ccc1Cl (stereo not given)", "assayed-system": "CCRF-CEM leukemia", "assay-result": "> 100 µM"}
{"compound": "O=C(Cn1c(C(=O)c2ccc(Cl)cc2)nc(-c2ccccc2)c1-c1ccccc1)c1ccc(Cl)cc1", "assayed-system": "CCRF-CEM leukemia", "assay-result": "> 100 µM"}
{"compound": "O=C1c2cc3c(cc2CC1Cc1ccc2c(c1)CCC2)CCC3 (stereo not given)", "assayed-system": "CCRF-CEM leukemia", "assay-result": "> 100 µM"}
{"compound": "O=C(NO)c1ccc(Cn2c(=O)n(-c3ccccc3)c(=O)c3ccccc32)cc1", "assayed-system": "CCRF-CEM leukemia", "assay-result": "> 100 µM"}

Then there is this compound:
[Q] I would be grateful if you could share the reported TGI for "COc1ccc(/C=N\NC(=O)c2ccc3nc(-c4ccc(Cl)cc4)[nH]c3c2)cc1" .
[A] > 100 µM

---

- System: HT29 colon
- assay-procedure: NCI tumour cell line growth inhibition, 48 h
quantity-kind: TGI

[Q] Hi! What's the reported TGI for "CNc1ccc([N+](=O)[O-])c2c(NCCCN(C)C)ccnc12" on HT29 colon?
[A] > 100 µM

[Q] Moving on to "CN(/N=C/c1ccc(Cl)cc1)C1=NCCCCN1"
[A] > 100 µM

[Q] Next up: CC1(C)CN=CC(C)(OCc2ccccc2)C(=O)NC(C)(C)CN=CC(C)(OCc2ccccc2)C(=O)N1 (stereo not drawn)
[A] > 10 µM

---

- Tested on: SW-620 colon
- assay-procedure: NCI tumour cell line growth inhibition, 48 h
Where a SMILES comes first, the peptide text is derived from it. Side-chain parts run from the residue outwards. The star is where a group is joined. Cbz = O=C(OCc1ccccc1)*; Boc = CC(C)(C)OC(=O)*
Below is a list of entries, each paired with its recorded TGI value.

Observe how each entry below is paired with its result.
{"compound": "O=S1c2ccccc2NC(c2ccc3ccccc3c2)CC1c1ccccc1 (configuration not stated)", "TGI": "42.7 µM"}
{"compound": "COc1ccc(N=Nc2c(-c3ccccc3)nn(C(=O)CC(=O)Nc3ccccc3Cl)c2-c2ccccc2)cc1", "TGI": "> 100 µM"}
{"compound": "CNC(=O)c1cc(Oc2ccc3nc(N[C@@H]4CCCC[C@H]4O)sc3c2)ccn1", "TGI": "> 100 µM"}
{"compound": "O=C1O[C@H]2C3C4CCC(C4[C@@H]2I)[C@H]13 (some centres not stated)", "TGI": "> 100 µM"}
{"compound": "O=C1CCNC(=O)NC1", "TGI": "> 100 µM"}

[Q] Could you tell me which TGI is on file for CS(=O)(=O)OCC1CCCCCCCCCCC12SCCCS2 (configuration not stated) ?
[A] > 100 µM

[Q] Similarly, CC(C)(C)OC(=O)NC(CCCCNC(=O)CNC(=O)OCc1ccccc1)C(=O)NC(CCCCNC(=O)CNC(=O)OCc1ccccc1)C(=O)NC(CCCCNC(=O)CNC(=O)OCc1ccccc1)C(=O)NC(CCCCNC(=O)CNC(=O)OCc1ccccc1)C(=O)O (configuration not stated) (Boc-K([Gly-Cbz])K([Gly-Cbz])K([Gly-Cbz])K([Gly-Cbz])-OH; configuration not given here) ?
[A] > 100 µM

---

- Tested on: 786-0 renal
- assay-procedure: NCI tumour cell line growth inhibition, 48 h
quantity-kind: TGI (µM)
Give your result in µM as a bare value.

{"molecule": "CCCCCCCCCCC[C@@H](C[C@H]1OC(=O)[C@H]1CCCCCC)OC(=O)[C@@H](CC(C)C)NC=O", "quantity-kind": "TGI", "measurement-unit": "µM", "assay-result": 18.7}
{"molecule": "O=S1c2ccccc2NC(c2ccc3ccccc3c2)CC1c1ccccc1 (configuration not stated)", "quantity-kind": "TGI", "measurement-unit": "µM", "assay-result": 31.1}

In the following, a different molecule is considered.
[Q] Look up TGI: CN(C)CC1CCCc2ccccc2C1=O (configuration not stated)
[A] 2.8

---

Recorded TGI by entry
- Test system: A549 NSCLC
- assay-procedure: NCI tumour cell line growth inhibition, 48 h

{"compound": "COc1ccc2c(c1)C(=O)c1c-2c(N2CCN(C(=O)CNCCN(C)C)CC2)nc2ccccc12", "TGI": "10.1 µM"}
{"compound": "COc1cc(C(O)C(=O)c2cnc3cc([N+](=O)[O-])ccc3n2)ccc1O (stereo unspecified)", "TGI": "> 100 µM"}
{"compound": "OC(C1CCCCCCCCCC1)C(O)C1CCCCCCCCCC1 (stereo unspecified)", "TGI": "> 100 µM"}
{"compound": "CC(=O)c1[nH]c(Nc2ccc(C)cc2)c(C(=S)Nc2ccccc2)c1N", "TGI": "30.7 µM"}
{"compound": "C1=CN2C[n+]3ccc4ccccc4c3N=C2c2ccccc21", "TGI": "21.6 µM"}
{"compound": "CC[C@H](C)[C@H](NC(=O)NC(C)(C)C)C(=O)N(C)[C@H](C[C@@H](OC(C)=O)c1nc(C(=O)N[C@@H](Cc2ccccc2)C[C@H](C)C(=O)OC)cs1)C(C)C", "TGI": "> 25 µM"}
{"compound": "O=C1c2cc3c(cc2CC1Cc1ccc2c(c1)CCC2)CCC3 (stereo unspecified)", "TGI": "> 100 µM"}
{"compound": "O=c1ccn(C2(CO)C=C(CO)C(O)C2O)c(=O)[nH]1 (stereo unspecified)", "TGI": "> 25.7 µM"}

Note: attention shifts to another entry.
[Q] Value lookup for TGI; key = "Fc1cccc(Cl)c1Cn1c(-c2c(F)cccc2Cl)nc2ccccc21"
[A] 33.7 µM

---

- Test system: IGROV1 ovarian
- assay-procedure: NCI tumour cell line growth inhibition, 48 h
quantity-kind: TGI

{"mol-smiles": "Nc1nccc2c1ccn2-c1cccc(NC(=O)c2ccc(N3CCOCC3)c(C(F)(F)F)c2)c1", "TGI": "> 46.5 µM"}

[Q] What value of TGI has been reported for the following compound? "O=c1[nH]nc(Cc2ccc(Cl)cc2)n1/N=C/c1c[nH]c2ccccc12"
[A] > 100 µM

[Q] Also check "COc1ccc(C(=O)/C=C/c2cc(-c3ccc4c(c3)OCO4)n[nH]2)cc1OC"
[A] 9.2 µM

---

- Test system: K-562 leukemia
- assay-procedure: NCI tumour cell line growth inhibition, 48 h; in the data active = GI50 below about 0.43 µM; inactive = the rest
Hi there, use one of these labels in your reply, thanks! active, inactive

{"mol-smiles": "CCOC(=O)c1ccc(N(C=O)CCC(=O)CCl)cc1", "assayed-system": "K-562 leukemia", "category": "active"}

[Q] Write down the call the test reported for this compound. Item: "Cc1ccc(-c2cc(-c3ccc(C)cc3)nc(N3CCN(CCNc4ccnc5cc(Cl)ccc45)CC3)n2)cc1"
[A] inactive

[Q] Param item: "O=C1NC(=O)[C@@H](c2c[nH]c3ccccc23)[C@@H]1c1c[nH]c2ccccc12"
[A] inactive
